Cited source: patent US8637536B2

# assay_target: Lp-PLA2 from plasma (pooled human plasma) (Homo sapiens, UniProt Q13093)
# Construct: 8 μL pooled human plasma; from tissue; host or cells: pooled human plasma
# Sequence (Q13093 22-441): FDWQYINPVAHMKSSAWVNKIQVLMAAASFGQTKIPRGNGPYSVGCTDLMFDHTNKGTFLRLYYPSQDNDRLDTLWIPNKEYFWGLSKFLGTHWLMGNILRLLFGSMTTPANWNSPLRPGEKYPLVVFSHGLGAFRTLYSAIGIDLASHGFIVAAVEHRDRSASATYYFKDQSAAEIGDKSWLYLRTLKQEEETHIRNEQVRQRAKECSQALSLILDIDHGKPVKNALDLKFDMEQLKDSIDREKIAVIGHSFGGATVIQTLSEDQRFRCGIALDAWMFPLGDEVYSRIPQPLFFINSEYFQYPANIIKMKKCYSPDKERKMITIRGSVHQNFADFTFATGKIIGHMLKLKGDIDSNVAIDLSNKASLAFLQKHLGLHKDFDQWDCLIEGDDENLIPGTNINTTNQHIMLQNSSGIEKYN
# method_summary: Lp-PLA2 human plasma assay (Thio-PAF assay)
# Assay type: biochemical
# measurement_context: text thresholds, read-out: pIC50 values in the thio-PAF assay (converted)
Structures can show the parent of a compound that is named as a salt.
measured_metric: IC50

Solved entries:
The recorded IC50 for Cn1cc(Cc2cn(C)c(SCCc3ccc(Oc4cccc(C(F)(F)F)c4)c(C#N)c3)nc2=O)cn1 [E92, trifluoroacetic acid salt] is ≤ 0.1 µM

The molecule listed as `Cc1ncc(Cc2c[nH]c(NCCc3ccc(Oc4ccc(C(F)(F)F)cn4)c(C#N)c3)nc2=O)cn1` has a reported IC50 of ≤ 0.1 µM

Form: molecule = `COc1ncc(Cc2c[nH]c(NCCc3ccc(Oc4ccc(C(F)(F)F)c(Cl)c4)cc3)nc2=O)cn1` ; IC50 = ≤ 1 µM

Query `COc1ncc(Cc2c[nH]c(OCCc3ccc(Oc4ccc(Cl)c(C(F)(F)F)n4)cc3)nc2=O)cn1` yields IC50 of ≤ 1 µM

IC50 recorded for this molecule, `CN(CCc1ccc(Oc2cccc(C(F)(F)F)c2)cc1)c1nc(=O)c(Cc2cncnc2)c[nH]1` , is ≤ 1 µM

Further cases:
What the record says about `Cn1cc(Cc2cncnc2)c(=O)nc1SCc1ccc(Oc2ccc(F)c(C(F)(F)F)c2)c(C#N)c1` : IC50 is ≤ 0.1 µM

GET /value?item= `COc1ncc(Cc2c[nH]c(OCCc3ccc(Oc4cc(Cl)cc(C(F)(F)F)c4)cc3)nc2=O)cn1` &field=IC50 returns ≤ 0.1 µM

get_value(item= `Cc1noc(Cc2c[nH]c(OCCc3ccc(Oc4ccc(Cl)c(C(F)(F)F)c4)cc3)nc2=O)n1` , readout=IC50) returns ≤ 1 µM

Quick note, IC50 for `Cc1ncc(Cc2c[nH]c(NCCc3ccc(Oc4ccc(Cl)c(C(F)(F)F)c4)cc3)nc2=O)cn1` landed at ≤ 0.1 µM

Looking up `COc1ncc(Cc2c[nH]c(NCCc3ccc(Oc4cccc(C(F)(F)F)c4)cc3)nc2=O)cn1` , I found its IC50 recorded as ≤ 1 µM
